These measurements were taken from the supplement of paper PMC10065799.

Molecular target: FGFR1 (UniProt P11362)
Sequence (P11362 whole entry, looked up): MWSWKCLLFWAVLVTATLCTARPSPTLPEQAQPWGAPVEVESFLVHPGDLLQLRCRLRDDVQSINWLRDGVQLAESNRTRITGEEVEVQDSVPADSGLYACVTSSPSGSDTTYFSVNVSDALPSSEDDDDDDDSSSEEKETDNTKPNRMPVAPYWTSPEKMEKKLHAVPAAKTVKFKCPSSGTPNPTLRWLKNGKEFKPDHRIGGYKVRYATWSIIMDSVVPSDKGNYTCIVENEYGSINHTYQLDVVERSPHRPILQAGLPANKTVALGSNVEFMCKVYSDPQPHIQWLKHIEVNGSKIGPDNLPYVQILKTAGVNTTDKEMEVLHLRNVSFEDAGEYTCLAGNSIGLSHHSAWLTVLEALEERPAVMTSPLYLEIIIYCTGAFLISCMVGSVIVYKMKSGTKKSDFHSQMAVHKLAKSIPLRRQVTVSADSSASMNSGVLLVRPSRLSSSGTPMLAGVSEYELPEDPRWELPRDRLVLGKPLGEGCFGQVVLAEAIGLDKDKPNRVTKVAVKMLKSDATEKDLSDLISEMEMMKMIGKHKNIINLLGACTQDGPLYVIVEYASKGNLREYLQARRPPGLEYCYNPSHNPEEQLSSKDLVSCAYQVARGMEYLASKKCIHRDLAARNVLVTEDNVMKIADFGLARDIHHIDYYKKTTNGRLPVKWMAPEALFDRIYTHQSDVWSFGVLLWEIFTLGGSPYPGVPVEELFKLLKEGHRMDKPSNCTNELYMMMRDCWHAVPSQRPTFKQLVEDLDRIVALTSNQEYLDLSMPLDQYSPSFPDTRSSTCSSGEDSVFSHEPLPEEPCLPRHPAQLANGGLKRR
Assay: phosphorylation enrichment, bacterial display (enrichment ratio); higher = better substrate or ligand; peptides without Tyr show the background
Quick rule for you: phosphorylation enrichment at 0.5 or higher means 1 (yes), lower means 0 (no).

polymer sequence | group
DNEAIYDICRC [TUBA4A_Y210_R215C] | 1 (yes)
PNRILYRDFRQ [MYH7_Y715_G716R] | 0 (no)
SGAWSYNTSTE [SELE_Y24] | 1 (yes)
KDQGTYEDYVE [MYL6_Y86] | 1 (yes)
NAPNSYGRRPS [CDKN2A_Y44_I49S] | 0 (no)
YKEQGYHRLPS [RIN1_Y681_P686S] | 0 (no)
SHNKYYMLVAH [MFSD8_Y134_R139H] | 1 (yes)

====

Molecular target: MERTK (UniProt Q12866)
Sequence (Q12866 whole entry, looked up): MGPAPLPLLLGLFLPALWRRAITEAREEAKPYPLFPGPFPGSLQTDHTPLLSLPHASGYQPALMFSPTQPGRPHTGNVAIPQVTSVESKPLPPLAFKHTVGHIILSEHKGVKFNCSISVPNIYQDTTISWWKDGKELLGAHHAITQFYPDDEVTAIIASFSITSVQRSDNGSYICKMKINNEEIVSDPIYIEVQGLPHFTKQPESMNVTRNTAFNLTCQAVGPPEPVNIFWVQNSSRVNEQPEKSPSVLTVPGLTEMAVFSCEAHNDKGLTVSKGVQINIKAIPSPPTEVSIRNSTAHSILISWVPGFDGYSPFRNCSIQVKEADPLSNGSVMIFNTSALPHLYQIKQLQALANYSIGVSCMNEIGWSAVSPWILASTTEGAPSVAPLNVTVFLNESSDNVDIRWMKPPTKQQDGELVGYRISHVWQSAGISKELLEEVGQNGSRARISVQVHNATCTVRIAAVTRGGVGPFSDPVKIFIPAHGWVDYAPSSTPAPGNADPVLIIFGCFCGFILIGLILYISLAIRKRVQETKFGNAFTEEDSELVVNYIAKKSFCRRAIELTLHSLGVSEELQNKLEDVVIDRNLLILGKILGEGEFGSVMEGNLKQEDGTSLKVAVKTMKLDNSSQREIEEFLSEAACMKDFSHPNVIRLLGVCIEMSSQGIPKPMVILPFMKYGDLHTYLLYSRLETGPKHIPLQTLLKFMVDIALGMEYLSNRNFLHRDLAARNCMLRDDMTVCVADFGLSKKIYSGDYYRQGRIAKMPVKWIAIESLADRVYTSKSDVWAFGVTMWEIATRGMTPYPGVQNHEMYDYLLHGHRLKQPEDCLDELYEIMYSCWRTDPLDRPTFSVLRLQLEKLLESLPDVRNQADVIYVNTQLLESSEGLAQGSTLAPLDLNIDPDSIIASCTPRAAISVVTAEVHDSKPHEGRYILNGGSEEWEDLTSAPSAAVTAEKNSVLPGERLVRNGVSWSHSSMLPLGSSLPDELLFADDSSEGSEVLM
Experiment: phosphorylation enrichment, bacterial display (enrichment ratio); higher = better substrate or ligand; peptides without Tyr show the background

polymer sequence | phosphorylation enrichment
EQKKFSNAMKK [SCN5A_Y1495_Y1495S_YF] | 0.326
NTADYYDLYGG [PTPN11_Y63_G60A] | 3.04
GAAMLYYPSVS [GPR143_Y177] | 4.88
LENQTYFKSFE [AKAP9_Y2482] | 0.81
YDGKDYIALNE [HLA-A_Y147] | 0.457
TIQMMYGCDVG [HLA-A_Y123_I121M] | 0.408
LFSINYLHFGE [KDM4C_Y201_YF] | 0.634
LNCIYYKDQTG [RS1_Y166_W163C] | 1.78
QEITTYRRLLE [KRT14_Y415_A413T] | 0.416

====

Test system: AncSZ
Assay: phosphorylation enrichment, bacterial display (enrichment ratio); higher = better substrate or ligand; peptides without Tyr show the background

polymer sequence | phosphorylation enrichment
TQFWRYFAGNL [SLC25A5_Y112_L111R] | 0.918
DPEATYTTSGS [EPHA2_Y772_G777S] | 0.889
AVLSLCASGRT [ACTA2_Y145_Y145C] | 0.898

====

Listing of recorded phosphorylation enrichment by entry.
Target: MERTK (UniProt Q12866)
Test: phosphorylation enrichment, bacterial display (enrichment ratio); higher = better substrate or ligand; peptides without Tyr show the background
metric name: phosphorylation enrichment

polymer sequence | value reported
QELRRYLKSGI [MICA_Y194_V199I] | 0.406
YFCRWYRNQKS [EREG_Y144_R147Q] | 0.523
GDYLSYREFHL [ERBIN_Y1107_S1112L] | 0.478
HCEDGYPGGSD [CTNND1_Y221_Y217C] | 0.626
TFLRTYTDAMQ [TSPAN7_Y124] | 0.37
NIWDSYTTNKV [GNB1_Y85_I80N] | 0.387
NSIGNYFKPWF [DHCR24_Y299_YF] | 4.54
DSGKLYALDVL [INO80_Y1104] | 3.17
RDMNAYISPSP [MMAA_Y207_R209S] | 0.451

====

Molecular target: Hck (UniProt P08631)
Sequence (P08631 whole entry, looked up): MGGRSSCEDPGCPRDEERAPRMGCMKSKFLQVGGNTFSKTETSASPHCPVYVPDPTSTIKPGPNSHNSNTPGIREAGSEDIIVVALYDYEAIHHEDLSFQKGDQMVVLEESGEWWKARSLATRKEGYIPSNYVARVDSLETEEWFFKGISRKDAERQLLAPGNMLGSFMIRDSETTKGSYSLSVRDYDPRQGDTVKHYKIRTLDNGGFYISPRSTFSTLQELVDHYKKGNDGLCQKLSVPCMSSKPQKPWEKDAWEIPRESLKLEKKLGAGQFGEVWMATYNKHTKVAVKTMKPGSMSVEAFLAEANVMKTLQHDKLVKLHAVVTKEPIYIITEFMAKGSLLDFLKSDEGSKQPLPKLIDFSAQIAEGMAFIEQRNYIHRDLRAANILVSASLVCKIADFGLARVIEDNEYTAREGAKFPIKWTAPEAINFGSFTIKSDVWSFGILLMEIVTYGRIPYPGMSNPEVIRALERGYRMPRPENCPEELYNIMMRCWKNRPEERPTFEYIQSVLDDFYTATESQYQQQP
Assay: phosphorylation enrichment, bacterial display (enrichment ratio); higher = better substrate or ligand; peptides without Tyr show the background

polymer sequence | phosphorylation enrichment
LPSKDYAEVRR [HP_Y272_G276R] | 0.7
LYEDHYLLGTS [ASS1_Y87_R86H] | 1.19
FIIFIYAMKKK [SLCO1B1_Y645_L643F_YF] | 1.45

====

Listing of recorded SH2 binding enrichment by entry.
Biological target: c-Src SH2
Test: SH2 binding enrichment of the phosphorylated peptide, bacterial display (enrichment ratio); higher = better substrate or ligand; peptides without Tyr show the background
metric name: SH2 binding enrichment

polymer sequence | metric name | value reported
ATKNDYWAMLA [WWOX_Y287_P282A] | SH2 binding enrichment | 0.497
KGLKVYVNGTL [ADGRD1_Y183_E178K] | SH2 binding enrichment | 0.549
FGPPQYNMQFS [ERBB2IP_Y977_I979M_YF] | SH2 binding enrichment | 0.529
IRKVLYANNVM [ACTA1_Y296_D294V] | SH2 binding enrichment | 0.82
HNMPIYEGYAL [ACTA1_Y168_V165M] | SH2 binding enrichment | 2.93
SISLKYEGRVF [ABL1_Y167_R166K_YF] | SH2 binding enrichment | 0.489
ISDNAYQFMLT [MYH7_Y162_YF] | SH2 binding enrichment | 0.735
FYRNVYHLASV [RBL1_Y796_K794N] | SH2 binding enrichment | 2
SGIFQYIIAKF [FOXL2_Y83_YF] | SH2 binding enrichment | 0.763
GGDGSYVSVPS [TNNI3K_Y425] | SH2 binding enrichment | 1.83
AIGCEYSEINI [SIGLEC12_Y588_Y586C] | SH2 binding enrichment | 0.631
YQNGMYGLHQD [SGSH_Y89_H84Y] | SH2 binding enrichment | 1.11
PKGTGCIKTEL [STAT1_Y701_Y701C] | SH2 binding enrichment | 0.586
MFRAGYDTKQE [F10_Y407_C404R] | SH2 binding enrichment | 0.5
LFVDVYGPSVP [NUBPL_Y109_D105Y_YF] | SH2 binding enrichment | 0.42
VNKLVYENING [FRS2_Y306] | SH2 binding enrichment | 6.33
SRNKPYISWPS [CDC42BPB_Y1638] | SH2 binding enrichment | 1.32
KKKKQYKDKFL [CASK_Y708_YF] | SH2 binding enrichment | 0.453
STSYDYCRVPM [BST2_Y8] | SH2 binding enrichment | 1.54
ATCKAYGQALA [TKT_Y321_R318C] | SH2 binding enrichment | 0.453
GSSKIYFLHPD [TLR5_Y108] | SH2 binding enrichment | 0.751
CGTPTYLAPEV [CHEK2_Y390] | SH2 binding enrichment | 0.582
CFSSEYHFVGG [CTSC_Y345_Y340C_YF] | SH2 binding enrichment | 0.652
DAASNYARGHF [TUBA3E_Y103_YF] | SH2 binding enrichment | 0.458
HHTDEYEYDEL [TGM1_Y134] | SH2 binding enrichment | 0.584
VLRRVYVDFEG [KMT2B_Y1707] | SH2 binding enrichment | 1.41
ISSLDYISKSK [VAV3_Y294_T298S] | SH2 binding enrichment | 0.365
CTTIHYNYMSN [TP53_Y234_C238S] | SH2 binding enrichment | 1.65
GRDVIYKGFED [NFU1_Y194_G190R] | SH2 binding enrichment | 0.51
HKGASYAFRLS [PTPRD_Y891_V892A] | SH2 binding enrichment | 0.698
LSAPCYLNRIS [HEXA_Y421_W420C] | SH2 binding enrichment | 0.594
QKKPCYEIRWK [PDGFRB_Y562_R561C] | SH2 binding enrichment | 1.73
QLLIEYPPEEV [ZZZ3_Y670_K669E] | SH2 binding enrichment | 0.569
KQRKEYMHRRQ [IQGAP2_Y710] | SH2 binding enrichment | 0.447
ADRSCYDLSCR [GARS1_Y467_H472R] | SH2 binding enrichment | 1.17
THLAPYSDELR [APOA1_Y190] | SH2 binding enrichment | 0.437
KYVVVYFRETD [IL17RB_Y447_I451T] | SH2 binding enrichment | 1.7
SLIDMYSEVPD [OPA1_Y268_L272P] | SH2 binding enrichment | 0.545
LHAAAYQNALA [UQCRC2_Y182_R183Q] | SH2 binding enrichment | 0.837

====

Target: Grb2 SH2 (UniProt P62993)
Sequence (P62993 whole entry, looked up): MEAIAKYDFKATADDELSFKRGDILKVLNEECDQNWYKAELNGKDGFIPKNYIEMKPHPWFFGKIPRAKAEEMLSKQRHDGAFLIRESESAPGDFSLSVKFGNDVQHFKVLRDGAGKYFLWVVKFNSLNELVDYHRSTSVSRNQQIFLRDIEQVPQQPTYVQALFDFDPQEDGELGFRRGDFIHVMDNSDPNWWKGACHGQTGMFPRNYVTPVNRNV
Assay: SH2 binding enrichment of the phosphorylated peptide, bacterial display (enrichment ratio); higher = better substrate or ligand; peptides without Tyr show the background

polymer sequence | SH2 binding enrichment
LYSGDYYRIQG [DDR2_Y740] | 1.02
FQKNIYSEELR [LMNA_Y211] | 1.02
MECLPYGSLRD [JAK2_Y934_Y931C] | 0.785
DLDLTSIYPNI [PTEN_Y27_Y27S] | 0.808
GADAIYDHVNE [UQCR10_Y44_I47V] | 0.79
VCDSDYSASRW [LRP5_Y1552] | 0.979
NTILLYHIMAW [GPR143_Y157_S152N] | 0.801
ERLWDYGMSSS [F8_Y1728] | 0.779
REGAKYVSHGT [ASS1_Y113_A118T] | 0.808

====

Molecular target: MERTK (UniProt Q12866)
Test: phosphorylation enrichment, bacterial display (enrichment ratio); higher = better substrate or ligand; peptides without Tyr show the background
// thresholds for phosphorylation enrichment classes: Low: < 0.5; Medium: ≥ 0.5 and < 0.6; High: ≥ 0.6

polymer sequence | group
LIGRRCDDPEV [HSPA9_Y128_Y128C] | Medium
RNIQQHNSFVS [PRKAR1A_Y373_Y373H] | Low
ESDGAYIQRMQ [CCDC137_Y125_H127Q] | Low
KGTAGYTTVAV [RET_Y752_R749T] | Low
SDFFAYSPVQE [H6PD_Y449_R453Q_YF] | High
KKYFSYAWPFY [BRDT_Y291_H288Y] | High
AAVNGYVFGGG [ECHS1_Y137_A138V] | Low
SNFRAYATEPH [TNNI3_Y29_YF] | Low
GACGGYCSVLG [RAB18_Y202] | Medium
RAILLYEFVGK [NATD1_Y45_V42I_YF] | High
LENSTYQFIRV [CRB1_Y760_YF] | High
SFLSFYTSHVQ [NEFL_Y443_P440L_YF] | Medium
FRRITYHNWRH [PDE6B_Y556_YF] | Medium
LFVDVYGPSVP [NUBPL_Y109_D105Y_YF] | Low
NTGVFYDLFGG [PTPN11_Y63_D61V_YF] | High
YIIFIYAMKKK [SLCO1B1_Y645_L643F] | High
MRAIIYNSSTA [PLEKHA7_Y243_L241I] | Low
NKFTTYLPWLP [C9orf24_Y126_R129W_YF] | High
